Molecular target: mouse TGR5 receptor (Mus musculus, UniProt Q80SS6)
Construct: expressed in transfected cells; host or cells: HEK293-EBNA (293 c18, ATCC CRL10852), Hygromycin B selection
Sequence (Q80SS6 whole entry): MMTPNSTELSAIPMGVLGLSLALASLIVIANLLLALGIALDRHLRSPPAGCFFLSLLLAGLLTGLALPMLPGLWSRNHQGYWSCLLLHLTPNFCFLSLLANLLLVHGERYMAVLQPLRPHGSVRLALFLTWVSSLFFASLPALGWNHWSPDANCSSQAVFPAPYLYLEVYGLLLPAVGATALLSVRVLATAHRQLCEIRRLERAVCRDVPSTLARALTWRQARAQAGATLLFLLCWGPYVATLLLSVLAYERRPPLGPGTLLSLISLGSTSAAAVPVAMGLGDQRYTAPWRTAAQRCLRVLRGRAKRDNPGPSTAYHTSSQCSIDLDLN
Assay: Mouse TGR5 cAMP production assay (luminescent, DiscoveRx cAMP XS+)
Assay type: cell-based
Conditions: HEK293-EBNA cells overexpressing mouse TGR5, luminescent cAMP XS+; coded A-D; read-out: Mouse TGR5 Lum. cAMP Activity (EC50)
Procedure: Mouse TGR5 cAMP Production Assay We evaluated compounds of the present invention for their ability to induce cAMP production in HEK-EBNA cells overexpressing the mouse TGR5 receptor. […] In this first cAMP production assay, the cAMP production was measured using DiscoveRx's cAMP XS+ kit following the manufacturer's recommended protocol. […] In Table 33, EC50 values for both human and mouse cells were determined according to the TGR5 cAMP assays described above.
pEC50: −log10 of the molar value.
MEASURED ENDPOINT: pEC50

Query: Give its pEC50 value. Item: COc1cnccc1-c1cccc([C@H](C)NS(=O)(=O)c2ccccc2C(F)(F)F)c1 [Compound 2BQ]
Response: 6.00 to 7.00

Query: And what about the compound O=S(=O)(NCc1cccc(-c2ccncc2Cl)c1)c1cccc(C(F)(F)F)c1 [Compound 1AQ] ?
Response: 4.52 to 6.00

Query: And what about the compound Nc1cnccc1-c1cccc(CNS(=O)(=O)c2cccc(C(F)(F)F)c2)c1 [Compound 1BG] ?
Response: 4.52 to 6.00

Query: And what about the compound O=S(=O)(NCc1cccc(-c2ccncc2C(F)(F)F)c1)c1cccc(C(F)(F)F)c1 [Compound 1BH] ?
Response: 4.52 to 6.00

Query: And what about the compound Cc1noc(C)c1-c1cccc(CNS(=O)(=O)c2cc(C(F)(F)F)ccc2F)c1 [Compound 2AF] ?
Response: < 4.52

Query: And what about the compound Cc1cccc(S(=O)(=O)NCc2cccc(-c3ccncc3)c2)c1 [Compound 2AI] ?
Response: 4.52 to 6.00

Query: And what about the compound COc1cnccc1-c1cccc(C(C)(C)NS(=O)(=O)c2cccc(Cl)c2)c1 [Compound 2AY] ?
Response: 6.00 to 7.00

Query: And what about the compound CC(C)(NS(=O)(=O)c1cccc(C(F)(F)F)c1)c1cccc(-c2ccncc2O)c1 [Compound 1AN] ?
Response: 4.52 to 6.00

Query: And what about the compound Cc1noc(C)c1-c1cccc(C(C)(C)NS(=O)(=O)c2cccc(C(F)(F)F)c2)c1 [Compound 1AC] ?
Response: 4.52 to 6.00

Query: And what about the compound O=[N+]([O-])c1cccc(S(=O)(=O)NCc2cccc(-c3ccncc3)c2)c1 [Compound 2AN] ?
Response: 4.52 to 6.00

Query: And what about the compound Cc1noc(C)c1-c1cccc(CNS(=O)(=O)c2ccc(C(F)(F)F)cc2)c1 [Compound 1AA] ?
Response: < 4.52

Query: And what about the compound COc1cnccc1-c1cccc([C@H](C)NS(=O)(=O)c2ccccc2[N+](=O)[O-])c1 [Compound 2BP] ?
Response: 6.00 to 7.00

Query: And what about the compound CC(C)(NS(=O)(=O)c1cccc(C(F)(F)F)c1)c1cccc(-c2ccnc(N)c2)c1 [Compound 1AL] ?
Response: 4.52 to 6.00

Query: And what about the compound COc1cnccc1-c1cccc([C@H](C)NS(=O)(=O)c2cccc(C(F)(F)F)c2)c1 [Compound 1AZ] ?
Response: 4.52 to 6.00

Query: And what about the compound C[C@H](NS(=O)(=O)c1cccc(C(F)(F)F)c1)c1cccc(-c2ccncc2F)c1 [Compound 1AY] ?
Response: 4.52 to 6.00

Query: And what about the compound Cc1noc(C)c1-c1cccc(CNS(=O)(=O)c2cccc(Cl)c2)c1 [Compound 2AA] ?
Response: 4.52 to 6.00

Query: And what about the compound COc1cnccc1-c1cccc(C(C)(C)NS(=O)(=O)c2ccccc2C(F)(F)F)c1 [Compound 2AV] ?
Response: 6.00 to 7.00

Query: And what about the compound Cc1noc(C)c1-c1cccc(CNS(=O)(=O)c2cc(F)cc(C(F)(F)F)c2)c1 [Compound 2AG] ?
Response: < 4.52

Query: And what about the compound O=S(=O)(NCc1cccc(-c2ccncc2)c1)c1ccccc1Cl [Compound 2AR] ?
Response: < 4.52

Query: And what about the compound O=S(=O)(NCc1cccc(-c2ccncc2F)c1)c1cccc(C(F)(F)F)c1 [Compound 1AP] ?
Response: 4.52 to 6.00
